TEST PROTOCOL: clinical plasma pharmacokinetics
Assay type: in vivo, human
CONDITION DESCRIPTION: human, plasma, oral, 100 mg, Cmax, Gmean, Single dose, N=4
ASSAY METRIC: Cmax (ng/mL)
Numeric answer only, unit ng/mL assumed.

Exercise: Sample CNC(=O)c1cccc(-c2ccc3c(N4CCOC[C@@H]4C)nc(N4CCOC[C@@H]4C)nc3n2)c1 [AZD2014] — what was its Cmax?
Solution: 2790

* * *

TEST PROTOCOL: clinical plasma pharmacokinetics
Format: in vivo, human
CONDITION DESCRIPTION: human, plasma, oral, 70 mg, AUC, Gmean, Single dose, N=5
ASSAY METRIC: AUC
Kindly write the number and append the unit.

Exercise: Sample CNC(=O)c1cccc(-c2ccc3c(N4CCOC[C@@H]4C)nc(N4CCOC[C@@H]4C)nc3n2)c1 — what was its AUC?
Solution: 8970 ng·h/mL

* * *

TEST PROTOCOL: clinical plasma pharmacokinetics
Type: in vivo, human
CONDITION DESCRIPTION: human, plasma, oral, 25 mg, Cmax ss, Range, Steady state, 25 mg BD, N=6
ASSAY METRIC: Cmax

Exercise: Sample CNC(=O)c1cccc(-c2ccc3c(N4CCOC[C@@H]4C)nc(N4CCOC[C@@H]4C)nc3n2)c1 — what was its Cmax?
Solution: 227 to 1450 ng/mL

* * *

TEST PROTOCOL: clinical plasma pharmacokinetics
Format: in vivo, human
CONDITION DESCRIPTION: human, plasma, oral, 25 mg, t½, ss, Mean, Steady state, 25 mg BD, N=6
ASSAY METRIC: half-life (h)
Numeric answer only, unit h assumed.

Exercise: Sample CNC(=O)c1cccc(-c2ccc3c(N4CCOC[C@@H]4C)nc(N4CCOC[C@@H]4C)nc3n2)c1 — what was its half-life?
Solution: 2.89

* * *

TEST PROTOCOL: clinical plasma pharmacokinetics
Format: in vivo, human
CONDITION DESCRIPTION: human, plasma, oral, 25 mg, Cmax, Range, Single dose, N=6
ASSAY METRIC: Cmax

Exercise: Sample CNC(=O)c1cccc(-c2ccc3c(N4CCOC[C@@H]4C)nc(N4CCOC[C@@H]4C)nc3n2)c1 [AZD2014] — what was its Cmax?
Solution: 221 to 681 ng/mL

* * *

TEST PROTOCOL: clinical plasma pharmacokinetics
Assay type: in vivo, human
CONDITION DESCRIPTION: human, plasma, po, terminal elimination half-life, patients
ASSAY METRIC: half-life

Exercise: Sample CNC(=O)c1cccc(-c2ccc3c(N4CCOC[C@@H]4C)nc(N4CCOC[C@@H]4C)nc3n2)c1 [AZD2014] — what was its half-life?
Solution: ~3 h

* * *

TEST PROTOCOL: clinical plasma pharmacokinetics
Format: in vivo, human
CONDITION DESCRIPTION: human, plasma, oral, 50 mg, t½, Mean, Single dose, N=27
ASSAY METRIC: half-life (h)
Numeric answer only, unit h assumed.

Exercise: Sample CNC(=O)c1cccc(-c2ccc3c(N4CCOC[C@@H]4C)nc(N4CCOC[C@@H]4C)nc3n2)c1 [AZD2014] — what was its half-life?
Solution: 2.48

* * *

TEST PROTOCOL: clinical plasma pharmacokinetics
Type: in vivo, human
CONDITION DESCRIPTION: human, plasma, oral, 50 mg, AUCss, Range, Steady state, 50 mg BD, N=37
ASSAY METRIC: AUC

Exercise: Sample CNC(=O)c1cccc(-c2ccc3c(N4CCOC[C@@H]4C)nc(N4CCOC[C@@H]4C)nc3n2)c1 — what was its AUC?
Solution: 1280 to 47800 ng·h/mL
